Target: human ether-à-go-go-related gene (hERG) potassium channel (human, UniProt Q12809)
Sequence (Q12809 whole entry, looked up): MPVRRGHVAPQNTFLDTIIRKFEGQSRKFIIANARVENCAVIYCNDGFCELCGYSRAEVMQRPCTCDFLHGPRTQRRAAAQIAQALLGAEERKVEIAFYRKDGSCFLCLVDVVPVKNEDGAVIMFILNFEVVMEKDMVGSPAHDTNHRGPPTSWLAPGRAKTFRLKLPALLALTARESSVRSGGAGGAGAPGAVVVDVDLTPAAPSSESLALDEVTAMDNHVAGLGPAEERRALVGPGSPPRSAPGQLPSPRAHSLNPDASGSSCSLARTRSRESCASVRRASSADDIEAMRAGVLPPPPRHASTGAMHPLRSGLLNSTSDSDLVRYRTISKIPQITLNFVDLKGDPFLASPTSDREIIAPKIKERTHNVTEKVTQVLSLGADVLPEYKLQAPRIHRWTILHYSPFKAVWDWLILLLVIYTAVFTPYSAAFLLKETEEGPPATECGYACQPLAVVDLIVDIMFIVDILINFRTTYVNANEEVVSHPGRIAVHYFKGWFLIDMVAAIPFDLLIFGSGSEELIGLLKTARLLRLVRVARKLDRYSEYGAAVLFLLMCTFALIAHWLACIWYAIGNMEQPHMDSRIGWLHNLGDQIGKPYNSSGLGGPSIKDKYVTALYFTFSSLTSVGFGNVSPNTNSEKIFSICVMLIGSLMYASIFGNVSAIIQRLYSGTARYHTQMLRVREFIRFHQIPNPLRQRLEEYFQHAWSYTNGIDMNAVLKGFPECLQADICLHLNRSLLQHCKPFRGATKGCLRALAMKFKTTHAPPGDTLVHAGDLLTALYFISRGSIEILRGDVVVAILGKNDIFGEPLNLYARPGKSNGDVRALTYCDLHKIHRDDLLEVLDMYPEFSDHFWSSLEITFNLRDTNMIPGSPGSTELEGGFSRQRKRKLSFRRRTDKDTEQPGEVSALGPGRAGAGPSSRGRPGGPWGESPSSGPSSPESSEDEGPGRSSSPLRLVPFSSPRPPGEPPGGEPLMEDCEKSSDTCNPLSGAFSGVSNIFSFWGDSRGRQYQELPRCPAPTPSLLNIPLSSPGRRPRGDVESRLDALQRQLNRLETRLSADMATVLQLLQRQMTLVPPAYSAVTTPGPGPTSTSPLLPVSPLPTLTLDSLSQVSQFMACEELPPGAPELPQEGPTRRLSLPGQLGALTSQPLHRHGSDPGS
Experiment: primary screen, population patch clamp on CHO cells stably expressing hERG; higher = less effect of the substance
Screen size: about 310,000 compounds; about 14,000 (4.5%) showed an effect of 50% or more. Effects have a minus sign here. For the sample, strong results were picked, then their nearest neighbours and some compounds at random.
# hERG current change (%, negative = inhibition) at 10uM per entry
API: value field is a number in %; no unit string.

# annotated cases, reported hERG current change (%, negative = inhibition) at 10uM shown
Cc1ccn(CCC(=O)O)n1 ... 26.6
Cc1oc(-c2ccc(Cl)cc2)nc1CN1CCCC(C(=O)NC2CC2)C1 (stereo not drawn) ... -81.3
c1cc(CNCCc2ccc3c(c2)OCO3)ccn1 ... 18.3
O=C1OC(CC(=O)N(Cc2nnc(-c3ccccc3Cl)o2)C2CC2)c2ccccc21 (stereo not drawn) ... -40.3
CCOc1ccc(-n2c(SCc3nc(-c4cccs4)no3)nnc2-c2ccncc2)cc1 ... -59.7

Query (compound): `CC(=O)c1cc(C#N)c(Oc2cc(C)cc(C)c2)nc1C` ; field requested: hERG current change (%, negative = inhibition) at 10uM -4.94

Query (compound): `Cc1ccc(C(=O)N(Cc2nnc(-c3ccc(Cl)cc3)o2)C2CC2)o1` ; field requested: hERG current change (%, negative = inhibition) at 10uM -32.6

Query (compound): `COc1cccc(CNCCc2ccc3c(c2)OCO3)c1OC.O=C(O)C(=O)O` ; field requested: hERG current change (%, negative = inhibition) at 10uM -15.5

Query (compound): `c1ccc(-n2c(SCc3nc(-c4cccs4)no3)nnc2-c2ccco2)cc1` ; field requested: hERG current change (%, negative = inhibition) at 10uM -42.6

Query (compound): `CC(C)c1ccc(NC(=S)NCCc2c[nH]c3ccccc23)cc1` ; field requested: hERG current change (%, negative = inhibition) at 10uM 10.8

Query (compound): `Cc1ccc(-c2noc(CSc3nnc(-c4ccncc4)n3-c3ccc(C)cc3)n2)cc1` ; field requested: hERG current change (%, negative = inhibition) at 10uM -42.9

Query (compound): CCN(CC)S(=O)(=O)c1ccc(F)c(C(=O)OC2CC(C)OC2=O)c1 (stereo not drawn) ; field requested: hERG current change (%, negative = inhibition) at 10uM -2.4

Query (compound): `CCCn1c(SCc2nc(-c3cccs3)no2)nnc1-c1ccncc1` ; field requested: hERG current change (%, negative = inhibition) at 10uM -4.13

Query (compound): `O=C1CS/C(=N\c2ccccn2)N1C1CCCCC1` ; field requested: hERG current change (%, negative = inhibition) at 10uM 13.7

###

Target: human ether-à-go-go-related gene (hERG) potassium channel (human, UniProt Q12809)
Test: primary screen, population patch clamp on CHO cells stably expressing hERG; higher = less effect of the substance
Hit rate of the full screen: of about 310,000 compounds, about 14,000 (4.5%) showed an effect of 50% or more. Effects have a minus sign here. The full list was thinned out, with strong results kept by preference.
# hERG current change (%, negative = inhibition) at 10uM per entry
API: value field is a number in %; no unit string.

# annotated cases, reported hERG current change (%, negative = inhibition) at 10uM shown
COc1ccccc1N(C)S(=O)(=O)c1ccc(C(=O)OCC(=O)NCCC2=CCCCC2)cc1 ... -4.24
O=c1cc(CCl)nc2sc3ccccc3n12 ... 8.04

Query (molecule): `CN(CC(=O)Nc1ccc(Cl)c(C(F)(F)F)c1)Cc1cc(=O)n2ccsc2n1` ; field requested: hERG current change (%, negative = inhibition) at 10uM -82.8

Query (molecule): `COc1cc(-c2ccc(NC(=O)NC3CC3)c(OC)c2)ccc1NC(=O)NC1CC1` ; field requested: hERG current change (%, negative = inhibition) at 10uM 27.9

Query (molecule): `O=c1cc(CSc2nnc(C3CC3)n2Cc2ccccc2)nc2sccn12` ; field requested: hERG current change (%, negative = inhibition) at 10uM 11.7

Query (molecule): `O=C(CCCCCN1C(=O)CCC1=O)Nc1ccc(Cl)c(C(F)(F)F)c1` ; field requested: hERG current change (%, negative = inhibition) at 10uM -58.7

###

Biological target: human ether-à-go-go-related gene (hERG) potassium channel (human);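 further: peak tail current of the secondary pulse compared with the same well before compound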
Assay: primary screen, population patch clamp on CHO cells stably expressing hERG; higher = less effect of the substance
Out of some 310,000 compounds screened, about 14,000 (4.5%) showed an effect of 50% or more. Effects have a minus sign here. The full list was thinned out, with strong results kept by preference.
# hERG current change (%, negative = inhibition) at 10uM per entry
API: value field is a number in %; no unit string.

# annotated cases, reported hERG current change (%, negative = inhibition) at 10uM shown
CC1(C)Cc2c(cnn2-c2cccc(F)c2)C(NC(=O)c2csnn2)C1 (stereo not shown) ... -78.3
CC1=C(C(=O)NC2CC(C)(C)Cc3c2cnn3-c2cccc(F)c2)OCCO1 (stereo not shown) ... -43.5
O=[N+]([O-])c1ccc(Oc2ccc(Oc3ccc(C(F)(F)F)cn3)cc2)nc1 ... -1.44

Query (compound): `CN1CCc2nc3sc(C#N)c(N)c3c(-c3cccs3)c2C1` ; field requested: hERG current change (%, negative = inhibition) at 10uM -56.8

###

Biological target: human ether-à-go-go-related gene (hERG) potassium channel (human);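 further: peak tail current of the secondary pulse compared with the same well before compound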
Assay: primary screen, population patch clamp on CHO cells stably expressing hERG; higher = less effect of the substance
Screen size: about 310,000 compounds; about 14,000 (4.5%) showed an effect of 50% or more. The effect is printed as a negative number. This excerpt belongs to a sample that is enriched for strong results.
# hERG current change (%, negative = inhibition) at 10uM per entry
API: value field is a number in %; no unit string.

COc1ccccc1C(=O)N(CCN(C)C)c1nc2cc(C)cc(C)c2s1.Cl ... -82
COc1cc2ccccc2cc1C(=O)N(CCN(C)C)c1nc2ccc(C)cc2s1.Cl ... -11.2
Cc1cc(C)c2sc(N(CCN(C)C)C(=O)c3cc(Cl)sc3Cl)nc2c1.Cl ... 9.32
COc1ccc(COC(=O)C2=C(C)NC(=O)NC2c2cccc(OC)c2OC)cc1 (stereo not shown) ... 5.25
Cc1ccc(C(=O)c2c3ccc([N+](=O)[O-])cc3[n+]([O-])n2CCC[NH3+])cc1.O=C([O-])C(F)(F)F ... -65.4
O=C(CS(=O)c1cccc(C(F)(F)F)c1)Nc1ccc(Cl)cc1Cl (stereo not shown) ... 8.83

Here's the next entry for you.
Query (compound): `Nc1cc(C(=O)OCC(=O)c2ccc(CC(=O)N3CCOCC3)s2)ccc1Cl` ; field requested: hERG current change (%, negative = inhibition) at 10uM -27.8

###

Biological target: human ether-à-go-go-related gene (hERG) potassium channel (human, UniProt Q12809);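 further: peak tail current of the secondary pulse compared with the same well before compound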
Assay: primary screen, population patch clamp on CHO cells stably expressing hERG; higher = less effect of the substance
In all, about 310,000 compounds went through this assay and about 14,000 (4.5%) showed an effect of 50% or more. Effects have a minus sign here. The sample holds strong results, similar compounds and a random draw of the others, so the mix is not that of the screen.
property: hERG current change (%, negative = inhibition) at 10uM (%)
API: value field is a number in %; no unit string.

# annotated cases, reported hERG current change (%, negative = inhibition) at 10uM shown
Cl.OC(CN1CCN(Cc2ccccc2)CC1)c1ccc(F)cc1 (centres unmarked) ... -67.9
O=S(=O)(c1ccc(O)cc1)c1ccc(O)cc1 ... 16.9
OC(CN1CCOCC1)c1ccc(F)cc1 (centres unmarked) ... 12.6

Query (compound): CC1CCC(C(C)C)C(OC(=O)C[n+]2cc(-c3ccc(Cl)cc3)n3c2CCCCC3)C1.[Cl-] (centres unmarked) ; field requested: hERG current change (%, negative = inhibition) at 10uM -79.4

Query (compound): `CN(C)CCN(C(=O)CN1C(=O)c2ccccc2C1=O)c1nc2cc3c(cc2s1)OCCO3.Cl` ; field requested: hERG current change (%, negative = inhibition) at 10uM -53.8

###

Molecular target: human ether-à-go-go-related gene (hERG) potassium channel (human, UniProt Q12809);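 further: peak tail current of the secondary pulse compared with the same well before compound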
Assay: primary screen, population patch clamp on CHO cells stably expressing hERG; higher = less effect of the substance
Out of some 310,000 compounds screened, about 14,000 (4.5%) showed an effect of 50% or more. The effect is printed as a negative number. The list comes from a sample in which strong results are over-represented; it also holds close analogues and randomly drawn compounds.
# hERG current change (%, negative = inhibition) at 10uM per entry
API: value field is a number in %; no unit string.

CCOC(=O)c1ccc(NC(=O)N2CCN(c3cccc(OC)c3)CC2)cc1 ... -16.5
O=C(CSCc1ccc([N+](=O)[O-])cc1)N/N=C/c1ccncc1 ... -49.1
O=C1COc2ccc(NC(=O)c3ccccc3C(=O)O)cc2N1 ... 21.6
O=C(CSc1nc2ccccc2c(=O)n1-c1ccccc1)NCc1ccc2c(c1)OCO2 ... 3.23

Given the entry `CSc1ccccc1N1CCN(C(=O)Nc2ccc3c(c2)NC(=O)CO3)CC1` , what hERG current change (%, negative = inhibition) at 10uM was observed with human ether-à-go-go-related gene (hERG) potassium channel (human, UniProt Q12809)? -56.3

Given the entry `Nc1ccccc1-c1nnc2n1CCCCC2` , what hERG current change (%, negative = inhibition) at 10uM was observed with human ether-à-go-go-related gene (hERG) potassium channel (human, UniProt Q12809)? 25.8

src = paper PMC4336329
